- target desc: PKR R510Q (Homo sapiens, UniProt P30613, R510Q)
- Sequence (P30613 whole entry R510Q): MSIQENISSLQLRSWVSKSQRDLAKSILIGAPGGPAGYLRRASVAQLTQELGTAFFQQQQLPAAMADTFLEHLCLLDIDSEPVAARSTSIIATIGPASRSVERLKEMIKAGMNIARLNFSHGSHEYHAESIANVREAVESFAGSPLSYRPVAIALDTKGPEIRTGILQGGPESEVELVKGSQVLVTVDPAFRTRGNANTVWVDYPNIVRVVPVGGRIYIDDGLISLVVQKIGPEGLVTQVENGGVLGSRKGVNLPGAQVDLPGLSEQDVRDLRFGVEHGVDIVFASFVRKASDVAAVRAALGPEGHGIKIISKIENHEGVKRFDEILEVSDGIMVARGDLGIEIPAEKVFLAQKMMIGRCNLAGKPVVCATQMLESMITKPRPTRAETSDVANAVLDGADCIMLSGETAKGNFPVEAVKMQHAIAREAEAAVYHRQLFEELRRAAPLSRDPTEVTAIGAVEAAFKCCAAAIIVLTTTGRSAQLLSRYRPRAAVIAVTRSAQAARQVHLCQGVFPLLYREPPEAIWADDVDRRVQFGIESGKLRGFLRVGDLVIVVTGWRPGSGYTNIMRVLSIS
- method: PKR mutant assay (R510Q), AC50, LDH/NADH-coupled, absorbance at 340 nm
- Format: biochemical
- condition context: Table 2; enzyme assay; read-out: PK R510Q AC50
- Procedure: Example 11. PKR Mutant Assay PKR or PKR mutant enzyme solution was diluted into a reaction mix, which contains 1× buffer (100 mM KCl, 50 mM Tris pH 7.5, 5 mM MgCl2) as well as PEP (conc depends on enzyme), 180 μM NADH, 0.5 units LDH, 1 mM DTT, 0.03% BSA; final assay concentrations after 1.11 fold dilution are indicated. […] 20 uL ADP was added to start reaction at room temperature and reaction progress was measured as changes in absorbance at 340 nm wavelength at room temperature. […]
value type: AC50

>>> result("Cc1cccc(Cn2ncc3c4sc(C)nc4n(C)c3c2=O)n1")
"< 300 nM"
>>> result("Cc1nc2c(s1)c1cnn(Cc3cn[nH]c3)c(=O)c1n2C")
"> 800 nM"
>>> result("Cc1nc2c(s1)c1cnn(Cc3ccc(CO)cc3)c(=O)c1n2C")
"> 800 nM"
>>> result("Cn1c2nc(C(N)=O)sc2c2cnn(Cc3csc(N)n3)c(=O)c21")
"301 to 800 nM"
>>> result("Cn1c2nc(C(O)c3ccccn3)sc2c2cnn(Cc3cccc4[nH]ncc34)c(=O)c21 (stereo not shown)")
"301 to 800 nM"
>>> result("Cc1nc2c(s1)c1cnn(Cc3ccc(O)cc3)c(=O)c1n2C")
"< 300 nM"
>>> result("Cc1nc2c(s1)c1cnn(Cc3ccc4cn[nH]c4c3)c(=O)c1n2C")
"301 to 800 nM"
>>> result("Cn1c2nc([S+](C)[O-])sc2c2cnn(Cc3csc(N)n3)c(=O)c21 (stereo not shown)")
"< 300 nM"
>>> result("Cn1c2nc([S+](C)[O-])sc2c2cnn(Cc3ccnc(N)n3)c(=O)c21 (stereo not shown)")
"> 800 nM"
>>> result("COc1cccc(Cn2ncc3c4sc([S+](C)[O-])nc4n(C)c3c2=O)c1 (stereo not shown)")
"< 300 nM"
>>> result("COc1cccc(Cn2ncc3c4sc(SC)nc4n(C)c3c2=O)c1")
"< 300 nM"
>>> result("Cn1ccc(Cc2nc3c(s2)c2cnn(Cc4cccc5[nH]ncc45)c(=O)c2n3C)n1")
"< 300 nM"
>>> result("Cn1c2nc(C3(c4ccccc4)CC3)sc2c2cnn(Cc3cccc4[nH]ncc34)c(=O)c21")
"> 800 nM"
>>> result("Cn1c2nc(Cc3ncsc3CO)sc2c2cnn(Cc3cccc4[nH]ncc34)c(=O)c21")
"< 300 nM"
>>> result("Cc1nc2c(s1)c1cnn(Cc3ccccc3F)c(=O)c1n2C")
"< 300 nM"
>>> result("Cn1c2nc(Cc3ccc(=O)[nH]c3)sc2c2cnn(Cc3cccc4[nH]ncc34)c(=O)c21")
"> 800 nM"
>>> result("Cn1c2nc(C#N)sc2c2cnn(Cc3csc(N)n3)c(=O)c21")
"> 800 nM"
>>> result("Cn1c2nc(C#N)sc2c2cnn(Cc3cccc(N)n3)c(=O)c21")
"301 to 800 nM"
>>> result("Cc1nc2c(s1)c1cnn(Cc3cccc(NC(N)=O)c3)c(=O)c1n2C")
"< 300 nM"
>>> result("C=Cc1nc2c(s1)c1cnn(Cc3cccc(OC)c3)c(=O)c1n2C")
"< 300 nM"
>>> result("Cn1c2nc(Cc3cccc4cn[nH]c34)sc2c2cnn(Cc3cccc4[nH]ncc34)c(=O)c21")
"< 300 nM"
>>> result("Cn1c2nc(C(O)(C(N)=O)c3ccccc3)sc2c2cnn(Cc3cccc4[nH]ncc34)c(=O)c21 (stereo not shown)")
"301 to 800 nM"
>>> result("Cn1c2nc(C(N)c3ccccc3)sc2c2cnn(Cc3cccc4[nH]ncc34)c(=O)c21 (stereo not shown)")
"< 300 nM"
>>> result("Cn1c2nc(C(C(N)=O)c3ccccc3)sc2c2cnn(Cc3cccc4[nH]ncc34)c(=O)c21 (stereo not shown)")
"< 300 nM"
>>> result("Cc1cccc(Cc2nc3c(s2)c2cnn(Cc4cccc5[nH]ncc45)c(=O)c2n3C)n1")
"< 300 nM"
>>> result("Cn1c2nc(Cc3cccc(CO)c3)sc2c2cnn(Cc3cccc4[nH]ncc34)c(=O)c21")
"< 300 nM"
>>> result("COc1cccc(Cn2ncc3c4sc(S(C)(=O)=O)nc4n(C)c3c2=O)c1")
"< 300 nM"
>>> result("COc1cccc(Cn2ncc3c4sc(C(=O)c5ccccc5)nc4n(C)c3c2=O)c1")
"> 800 nM"
>>> result("Cn1c2nc(Cc3cc[nH]n3)sc2c2cnn(Cc3ccc4ccccc4n3)c(=O)c21")
"< 300 nM"
>>> result("Cn1c2nc(CC(N)=O)sc2c2cnn(Cc3cccc4[nH]ncc34)c(=O)c21")
"< 300 nM"
>>> result("CC(O)c1nc2c(s1)c1cnn(Cc3cccc4[nH]ncc34)c(=O)c1n2C (stereo not shown)")
"< 300 nM"
>>> result("CNc1ccc(Cn2ncc3c4sc(C)nc4n(C)c3c2=O)cc1")
"301 to 800 nM"
>>> result("Cc1nc2c(s1)c1cnn(Cc3ccccc3O)c(=O)c1n2C")
"< 300 nM"
>>> result("Cn1c2nc(NCc3ccccc3)sc2c2cnn(Cc3cccc4[nH]ncc34)c(=O)c21")
"301 to 800 nM"
